molecular target: rat liver microsomal 5α-reductase (Rattus norvegicus, UniProt P24008); construct: The reaction was started with the addition of liver microsomes (20 μg protein); from tissue; host or cells: liver microsomes of male Sprague–Dawley rats; test: 5α-reductase assay using rat liver microsomes (testosterone metabolism, HPLC and TLC); type: biochemical; conditions: test sample 0.1 μmol/L; testosterone 3.5 μmol/L, 30 min, rat liver microsomes 40 μg/mL, HPLC; mean ± SEM, N = 3
Sequence (P24008 whole entry): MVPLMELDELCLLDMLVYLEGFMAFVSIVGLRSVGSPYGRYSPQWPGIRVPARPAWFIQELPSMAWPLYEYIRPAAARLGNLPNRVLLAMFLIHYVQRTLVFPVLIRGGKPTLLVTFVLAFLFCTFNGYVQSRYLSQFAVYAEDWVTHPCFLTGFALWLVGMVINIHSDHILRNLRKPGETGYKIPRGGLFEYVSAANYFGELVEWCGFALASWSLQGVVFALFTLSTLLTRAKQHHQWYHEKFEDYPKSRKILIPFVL
Quantity measured: Inhibitory activity on 5α-reductase (% of control)

Reference set, count: 2
O=C(O[C@@H]1Cc2c(O)cc(O)cc2O[C@@H]1c1ccc(O)c(O)c1)c1cc(O)c(O)c(O)c1 [(−)-Epicatechin gallate, (−)-epicatechin gallate] :: 4.6 ± 0.2 % of control
O=C(OC[C@H]1OC(OC(=O)c2cc(O)c(O)c(O)c2)[C@H](OC(=O)c2cc(O)c(O)c(O)c2)[C@@H](OC(=O)c2cc(O)c(O)c(O)c2)[C@@H]1O)c1cc(O)c(O)c(O)c1 (some centres unmarked) [Tetragalloyl glucose, 1,2,3,6-tetra-O-galloyl glucose] :: 3.3 ± 0.5 % of control

Batch request: Inhibitory activity on 5α-reductase (% of control) per item, same order as input.
1. O=C1OC[C@H]2OC(=O)c3cc(O)c(O)c(O)c3-c3c(O)c(O)c(O)c4c3C(=O)O[C@H]([C@H]3OC(=O)c5c-4c(O)c(O)c(O)c5[C@H]3O)[C@@H]2OC(=O)c2cc(O)c(O)c(O)c2-c2c1cc(O)c(O)c2O [Castalagin, castalagin]
2. O=C(O[C@@H]1COC(=O)c2cc(O)c(O)c(O)c2-c2c(cc(O)c(O)c2O)C(=O)O[C@H]1[C@@H]1OC(=O)c2cc(O)c(O)c(O)c2-c2c(O)c(O)c(O)c3c2C(=O)O[C@H]1[C@@H]3O)c1cc(O)c(O)c(O)c1 [Casuarinin, casuarinin]
3. O=C(O[C@@H]1O[C@@H]2COC(=O)c3cc(O)c(O)c(O)c3-c3c(cc(O)c(O)c3O)C(=O)O[C@H]2[C@H](OC(=O)c2cc(O)c(O)c(O)c2)[C@H]1OC(=O)c1cc(O)c(O)c(O)c1)c1cc(O)c(O)c(O)c1 [Eugeniin, eugeniin]
4. O=C(OC[C@H]1O[C@@H](OC(=O)c2cc(O)c(O)c(O)c2)[C@H](OC(=O)c2cc(O)c(O)c(O)c2)[C@@H](OC(=O)c2cc(O)c(O)c(O)c2)[C@@H]1OC(=O)c1cc(O)c(O)c(O)c1)c1cc(O)c(O)c(O)c1 [Pentagalloyl glucose, 1,2,3,4,6-penta-O-galloyl glucose]
5. O=C(O[C@@H]1Cc2c(O)cc(O)cc2O[C@@H]1c1cc(O)c(O)c(O)c1)c1cc(O)c(O)c(O)c1 [(−)-Epigallocatechin gallate, (−)-epigallocatechin gallate]
6. O=C(O[C@H]1[C@@H]2OC(=O)c3cc(O)c(O)c(O)c3-c3c(cc(O)c(O)c3O)C(=O)OC[C@H]2OC(O)[C@@H]1OC(=O)c1cc(O)c(O)c(O)c1)c1cc(O)c(O)c(O)c1 (some centres unmarked) [1-Desgalloyl eugeniin, 1-desgalloyl eugeniin]

1. 4.9 ± 0.5 % of control
2. 6.4 ± 1.4 % of control
3. 4.2 ± 1.0 % of control
4. 5.4 ± 1.3 % of control
5. 3.7 ± 0.1 % of control
6. 4.6 ± 0.2 % of control
